Assay method text: self-splicing fitness, log relative to wild type (ln ratio); higher = more splicing; Tetrahymena group I intron in knt gene, E. coli kanamycin selection, DiMSum; sequences stand for … in CUCUCU…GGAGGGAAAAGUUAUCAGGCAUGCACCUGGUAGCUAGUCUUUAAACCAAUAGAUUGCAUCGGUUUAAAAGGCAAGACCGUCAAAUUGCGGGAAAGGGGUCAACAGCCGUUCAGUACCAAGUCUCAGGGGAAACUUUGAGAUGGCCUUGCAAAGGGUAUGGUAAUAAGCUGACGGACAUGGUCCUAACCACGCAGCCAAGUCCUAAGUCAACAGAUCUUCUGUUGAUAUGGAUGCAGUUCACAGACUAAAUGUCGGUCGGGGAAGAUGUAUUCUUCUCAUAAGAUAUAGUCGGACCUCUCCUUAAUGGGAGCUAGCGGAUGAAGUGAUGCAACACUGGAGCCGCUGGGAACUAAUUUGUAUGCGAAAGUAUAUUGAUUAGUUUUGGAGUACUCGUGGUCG;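 further: selection with 25 µg/mL kanamycin versus none on LB agar overnight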
Assay conditions: 30 °C
Lab note: compare self-splicing fitness (ln) against -2. Equal or greater, write Yes. Smaller, write No.

- AUCAAGCAAUAUUACGGGCA: Yes
- AUUGAGCAAUAUUACGGAUG: No
- AAGUAGCAAUAUUACGAUAA: Yes
- CUCUAGCAAUAUUACGUCUA: No
- AAGCAGCAAUAUUACGCAUU: No
- AGGAAGCAAUAUUACGCUAG: No
- UGUUAGCAAUAUUACGCUGU: No
- GGCGAGCAAUAUUACGCUAU: No

---

Assay method text: self-splicing fitness, log relative to wild type (ln ratio); higher = more splicing; Tetrahymena group I intron in knt gene, E. coli kanamycin selection, DiMSum; sequences stand for … in CUCUCU…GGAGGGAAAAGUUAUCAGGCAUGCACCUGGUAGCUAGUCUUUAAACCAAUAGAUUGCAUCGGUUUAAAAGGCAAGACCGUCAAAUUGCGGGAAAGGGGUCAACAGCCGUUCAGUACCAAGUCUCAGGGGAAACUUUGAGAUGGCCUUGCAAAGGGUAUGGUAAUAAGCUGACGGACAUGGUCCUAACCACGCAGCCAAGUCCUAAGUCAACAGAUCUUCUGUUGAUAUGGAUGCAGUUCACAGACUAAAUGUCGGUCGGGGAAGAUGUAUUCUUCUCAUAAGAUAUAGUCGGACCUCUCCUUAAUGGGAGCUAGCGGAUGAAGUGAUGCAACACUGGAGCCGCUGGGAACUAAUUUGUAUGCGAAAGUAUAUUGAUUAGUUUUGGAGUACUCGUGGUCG
Assay conditions: 30 °C
Lab note: compare self-splicing fitness (ln) against -3. Equal or greater, write 1. Smaller, write -1.

• CCUGAGCAAUAUUACGGGCC = -1
• CAUGAGCAAUAUUACGGUUG = 1
• GUACAGCAAUAUUACGGAUA = 1
• ACCUAGCAAUAUUACGGUGG = -1
• GCAUAGCAAUAUUACGUGUC = -1
• UGUUAGCAAUAUUACGCACU = 1
• CGUAAGCAAUAUUACGAACU = 1
• UUGCAGCAAUAUUACGGCGC = 1
• GACAAGCAAUAUUACGUGCG = 1
• GAAGAGCAAUAUUACGGACG = 1
• UCGUAGCAAUAUUACGUGGA = 1
• UUCGAGCAAUAUUACGCUCU = -1
• AGAAAGCAAUAUUACGCGGA = 1
• GGUAAGCAAUAUUACGCUUC = -1
• UUUAAGCAAUAUUACGACCC = 1

---

Assay method text: self-splicing fitness, log relative to wild type (ln ratio); higher = more splicing; Tetrahymena group I intron in knt gene, E. coli kanamycin selection, DiMSum; sequences stand for … in CUCUCU…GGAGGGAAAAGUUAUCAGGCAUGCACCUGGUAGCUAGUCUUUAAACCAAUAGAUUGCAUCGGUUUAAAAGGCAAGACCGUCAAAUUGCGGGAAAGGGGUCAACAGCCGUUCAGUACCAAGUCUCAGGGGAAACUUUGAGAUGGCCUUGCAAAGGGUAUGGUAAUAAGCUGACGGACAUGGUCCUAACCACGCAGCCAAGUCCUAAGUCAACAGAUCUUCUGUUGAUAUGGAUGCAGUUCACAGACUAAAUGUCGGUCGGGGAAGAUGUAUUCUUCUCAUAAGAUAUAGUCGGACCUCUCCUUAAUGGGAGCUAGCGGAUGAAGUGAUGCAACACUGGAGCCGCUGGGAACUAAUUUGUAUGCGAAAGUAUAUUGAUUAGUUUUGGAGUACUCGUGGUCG
Assay conditions: 37 °C
Let's look at some sequences and their measured self-splicing fitness (ln).
Property measured: self-splicing fitness (ln)

- GAAAAGCAAUAUUACGAAGA: -1.34
- UGGUAGCAAUAUUACGAGUG: -0.313
- CUUGAGCAAUAUUACGACAG: -0.98
- UAUAAGCAAUAUUACGGGCU: -1.71
- GCGGAGCAAUAUUACGGGAG: -0.916
- AUCGAGCAAUAUUACGUCGG: -1.42
- CUAAAGCAAUAUUACGUCGG: -0.189
- CAAGAGCAAUAUUACGCAUG: -2.53
- CCUUAGCAAUAUUACGAACG: -0.847
- GCUGAGCAAUAUUACGAAGG: -1.52
- GAGCAGCAAUAUUACGAAGA: -1.14
- AGGAAGCAAUAUUACGGAUU: -1.55
- UAAGAGCAAUAUUACGCAAC: -2.19
- UCGGAGCAAUAUUACGUCGG: -2.04
- CAAAAGCAAUAUUACGUAUC: -1.02
- GGAAAGCAAUAUUACGUAAU: -1.23

---

Assay method text: self-splicing fitness, log relative to wild type (ln ratio); higher = more splicing; Tetrahymena group I intron in knt gene, E. coli kanamycin selection, DiMSum; sequences stand for … in CUCUCU…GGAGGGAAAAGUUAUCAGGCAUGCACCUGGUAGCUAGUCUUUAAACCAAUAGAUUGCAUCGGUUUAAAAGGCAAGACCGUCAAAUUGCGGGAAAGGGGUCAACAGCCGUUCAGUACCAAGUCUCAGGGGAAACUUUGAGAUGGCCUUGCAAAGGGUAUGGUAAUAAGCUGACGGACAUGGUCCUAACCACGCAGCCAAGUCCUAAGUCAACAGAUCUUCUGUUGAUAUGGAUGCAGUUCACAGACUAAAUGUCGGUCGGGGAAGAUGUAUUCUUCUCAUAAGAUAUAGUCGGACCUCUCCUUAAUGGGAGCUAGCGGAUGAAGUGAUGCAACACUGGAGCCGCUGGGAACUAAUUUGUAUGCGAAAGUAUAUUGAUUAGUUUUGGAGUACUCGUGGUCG
Assay conditions: 30 °C
Property measured: self-splicing fitness (ln)

- UGAAAGCAAUAUUACGGGUG: -0.621
- AGACAGCAAUAUUACGACGA: -1.29
- CAGUAGCAAUAUUACGUAAG: 0.131
- AGGCAGCAAUAUUACGGGCA: -1.39
- GCAGAGCAAUAUUACGAAGA: -1.88
- UGACAGCAAUAUUACGCGCA: -0.495
- AGAUAGCAAUAUUACGGCUA: 0.0313
- CGUAAGCAAUAUUACGGUCA: -2.2

---

Assay method text: self-splicing fitness, log relative to wild type (ln ratio); higher = more splicing; Tetrahymena group I intron in knt gene, E. coli kanamycin selection, DiMSum; sequences stand for … in CUCUCU…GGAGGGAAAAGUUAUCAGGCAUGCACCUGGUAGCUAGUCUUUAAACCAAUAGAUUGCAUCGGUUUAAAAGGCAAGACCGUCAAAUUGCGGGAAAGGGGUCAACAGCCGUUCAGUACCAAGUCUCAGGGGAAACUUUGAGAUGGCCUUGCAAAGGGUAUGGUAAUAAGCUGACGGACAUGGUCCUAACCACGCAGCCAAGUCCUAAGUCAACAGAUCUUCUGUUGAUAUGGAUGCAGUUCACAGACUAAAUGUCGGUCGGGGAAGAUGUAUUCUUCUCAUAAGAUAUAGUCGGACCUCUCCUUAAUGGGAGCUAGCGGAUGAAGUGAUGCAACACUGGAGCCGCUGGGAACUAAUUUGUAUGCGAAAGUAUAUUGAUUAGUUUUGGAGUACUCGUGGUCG
Assay conditions: 37 °C
Lab note: compare self-splicing fitness (ln) against -1. Equal or greater, write label 1. Smaller, write label 0.

- UGGCAGCAAUAUUACGCCUG: label 1
- CUGCAGCAAUAUUACGCGAA: label 0
- UGUAAGCAAUAUUACGGAAA: label 0
- UUAAAGCAAUAUUACGGUCC: label 0
- CCCGAGCAAUAUUACGCUUG: label 0
- GAUGAGCAAUAUUACGUCUC: label 0
- GAUUAGCAAUAUUACGGCUA: label 1
- AGACAGCAAUAUUACGUUGU: label 0
- CUGCAGCAAUAUUACGCGGU: label 0
- AGUGAGCAAUAUUACGAAUG: label 0
- CGUUAGCAAUAUUACGUUAU: label 0
- AUGCAGCAAUAUUACGGGAC: label 0
- AUGCAGCAAUAUUACGUCAC: label 0
- AAUUAGCAAUAUUACGAUCG: label 1
- UCAAAGCAAUAUUACGGGUC: label 0
- UUAAAGCAAUAUUACGUCAU: label 1
